Could you please report measured Molt4 IC50 for the items listed next?
Biological target: T1, human CD98, endogenously expressed on Molt-4 human acute lymphoblastic leukemia cells (human)
T1 chain: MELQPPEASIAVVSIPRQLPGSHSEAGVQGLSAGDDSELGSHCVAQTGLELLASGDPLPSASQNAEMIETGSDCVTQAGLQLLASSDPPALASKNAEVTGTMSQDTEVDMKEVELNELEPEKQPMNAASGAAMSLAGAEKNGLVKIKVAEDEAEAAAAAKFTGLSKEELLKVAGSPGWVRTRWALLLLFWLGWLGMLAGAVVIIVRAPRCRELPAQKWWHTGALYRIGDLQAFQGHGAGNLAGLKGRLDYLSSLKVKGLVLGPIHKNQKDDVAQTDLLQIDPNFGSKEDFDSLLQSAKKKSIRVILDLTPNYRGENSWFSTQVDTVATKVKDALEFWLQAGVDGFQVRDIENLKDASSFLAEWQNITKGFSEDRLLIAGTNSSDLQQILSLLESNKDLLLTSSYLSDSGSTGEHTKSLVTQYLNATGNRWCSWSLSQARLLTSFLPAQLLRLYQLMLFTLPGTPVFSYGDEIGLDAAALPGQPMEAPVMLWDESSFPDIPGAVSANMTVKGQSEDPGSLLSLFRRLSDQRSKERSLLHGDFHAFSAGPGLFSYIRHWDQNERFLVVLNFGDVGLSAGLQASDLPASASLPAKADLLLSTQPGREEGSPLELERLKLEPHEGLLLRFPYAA
Assay: cell-based or functional assay
Numbers only; they are read as nM.

State its Molt4 IC50 for this binder: CD98 (CL-huAb102)-CZ (antibody, human IgG1, kappa, L234A L235A, V domains shown, synthon CZ on reduced interchain cysteines (sites not given)) VH: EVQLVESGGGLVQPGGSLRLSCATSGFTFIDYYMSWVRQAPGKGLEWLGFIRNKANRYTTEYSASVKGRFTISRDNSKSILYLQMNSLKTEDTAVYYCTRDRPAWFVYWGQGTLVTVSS VL: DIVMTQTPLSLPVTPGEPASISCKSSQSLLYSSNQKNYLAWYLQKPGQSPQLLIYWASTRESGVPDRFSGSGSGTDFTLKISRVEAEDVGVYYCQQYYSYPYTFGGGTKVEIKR 0.015

State its Molt4 IC50 for this binder: CD98 (CL-huAb104)-ZZ (antibody, human IgG1, kappa, L234A L235A, V domains shown, synthon ZZ on reduced interchain cysteines (sites not given)) VH: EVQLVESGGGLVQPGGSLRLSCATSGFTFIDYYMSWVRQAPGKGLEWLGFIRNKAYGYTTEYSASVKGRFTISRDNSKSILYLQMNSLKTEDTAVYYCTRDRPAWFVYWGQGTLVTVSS VL: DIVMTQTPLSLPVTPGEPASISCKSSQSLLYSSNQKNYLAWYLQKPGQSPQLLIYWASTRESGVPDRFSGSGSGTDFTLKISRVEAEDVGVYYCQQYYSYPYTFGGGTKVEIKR 0.061

State its Molt4 IC50 for this binder: CD98 (CL-huAb110)-TV (antibody, human IgG1, kappa, L234A L235A, V domains shown, synthon TV on reduced interchain cysteines (sites not given)) VH: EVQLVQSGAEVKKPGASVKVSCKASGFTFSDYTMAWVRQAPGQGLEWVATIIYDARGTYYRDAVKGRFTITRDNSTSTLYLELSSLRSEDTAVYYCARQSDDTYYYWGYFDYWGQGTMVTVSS VL: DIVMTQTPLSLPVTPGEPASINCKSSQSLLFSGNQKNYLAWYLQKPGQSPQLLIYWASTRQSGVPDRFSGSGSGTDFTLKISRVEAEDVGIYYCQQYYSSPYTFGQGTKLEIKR 0.09

State its Molt4 IC50 for this binder: CD98 (CL-huAb104)-LB (antibody, human IgG1, kappa, L234A L235A, V domains shown, synthon LB on reduced interchain cysteines (sites not given)) VH: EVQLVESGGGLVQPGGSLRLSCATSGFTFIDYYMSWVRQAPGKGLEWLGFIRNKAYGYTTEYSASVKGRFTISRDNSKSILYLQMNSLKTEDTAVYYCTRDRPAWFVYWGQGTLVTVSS VL: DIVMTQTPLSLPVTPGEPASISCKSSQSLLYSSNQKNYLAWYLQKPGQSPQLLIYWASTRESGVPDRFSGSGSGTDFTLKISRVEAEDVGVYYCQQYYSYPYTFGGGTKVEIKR 0.062

State its Molt4 IC50 for this binder: CD98 (CL-huAb108)-TV (antibody, human IgG1, kappa, L234A L235A, V domains shown, synthon TV on reduced interchain cysteines (sites not given)) VH: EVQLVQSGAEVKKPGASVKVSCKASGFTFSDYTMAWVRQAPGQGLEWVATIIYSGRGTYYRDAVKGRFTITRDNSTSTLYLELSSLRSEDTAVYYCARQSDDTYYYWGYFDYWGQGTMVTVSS VL: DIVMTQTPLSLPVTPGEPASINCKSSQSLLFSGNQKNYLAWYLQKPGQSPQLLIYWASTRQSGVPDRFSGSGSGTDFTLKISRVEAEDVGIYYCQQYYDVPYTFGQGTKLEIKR 0.08
